Below: a set of entries, each annotated with reported Combination Index, Simultaneous.
# Test system: colon cancer cell line DLD-1
# assay.notes: Cell viability assay (CellTiter-Glo) and combination effect analysis of leptomycin B plus co-agent
# Assay type: cell-based, Human
# run.parameters: combination with leptomycin B; DLD-1 cells; simultaneous exposure to LMB and drug for 72 hours; average CI over fraction affected 0.2 to 0.9; constant ratio of IC50s
// return a plain number; no unit text

Take a look at these entries with their results.
IN: // query Combination Index, Simultaneous value for entry CCc1c2c(nc3ccc(OC(=O)N4CCC(N5CCCCC5)CC4)cc13)-c1cc3c(c(=O)n1C2)COC(=O)[C@]3(O)CC [Irinotecan, irinotecan]
OUT: 0.92

IN: // query Combination Index, Simultaneous value for entry C=CCNC1=C2C[C@@H](C)C[C@H](OC)[C@H](O)[C@@H](C)/C=C(\C)[C@H](OC(N)=O)[C@@H](OC)/C=C\C=C(/C)C(=O)NC(=CC1=O)C2=O [17-AAG, 17-allylamino-17-demethoxygeldanamycin]
OUT: 1.15

IN: // query Combination Index, Simultaneous value for entry CC[C@H](C)[C@@H](COC(Cc1ccccc1)C(=O)N[C@@H](CCS(C)(=O)=O)C(=O)OC(C)C)NC[C@@H](N)CS (stereo partly drawn) [L-744832]
OUT: 0.84

IN: // query Combination Index, Simultaneous value for entry O=C(CCCCCCC(=O)Nc1ccccc1)NO [SAHA, suberoylanilide hydroxamic acid]
OUT: 0.88

Next compound, please.
IN: // query Combination Index, Simultaneous value for entry CCC1(c2ccc(N)cc2)CCC(=O)NC1=O (centres unmarked) [Aminoglutethimide, aminoglutethimide]
OUT: 0.89

---

# Tested on: colon cancer cell line DLD-1
# assay.notes: Cell viability assay (CellTiter-Glo) and combination effect analysis of leptomycin B plus co-agent
# Assay type: cell-based, Human
# run.parameters: combination with leptomycin B; DLD-1 cells; simultaneous exposure to LMB and drug for 72 hours; average CI over fraction affected 0.2 to 0.9; constant ratio of IC50s
Tag: condition met if measured Combination Index, Simultaneous is not below 1, condition not met if it is.

Check out these entries, answers already filled in.
IN: Could you tell me if the measured Combination Index, Simultaneous of `COc1cccc2c1C(=O)c1c(O)c3c(c(O)c1C2=O)C[C@@](O)(C(=O)CO)C[C@@H]3O[C@H]1C[C@H](N)[C@H](O)[C@H](C)O1` reaches 1 or more?
OUT: condition not met

IN: Could you tell me if the measured Combination Index, Simultaneous of `Nc1ccn([C@@H]2O[C@H](CO)[C@@H](O)C2(F)F)c(=O)n1` reaches 1 or more?
OUT: condition not met

IN: Could you tell me if the measured Combination Index, Simultaneous of `CC(=O)O[C@@]12CO[C@@H]1C[C@H](O)[C@@]1(C)C(=O)[C@H](O)C3=C(C)[C@@H](OC(=O)[C@H](O)[C@@H](NC(=O)OC(C)(C)C)c4ccccc4)C[C@@](O)([C@@H](OC(=O)c4ccccc4)[C@H]21)C3(C)C` reaches 1 or more?
OUT: condition met

Please turn your attention to the following entry.
IN: Could you tell me if the measured Combination Index, Simultaneous of `C/C1=C/C[C@@H](/C(C)=C/c2csc(C)n2)OC(=O)C[C@H](O)C(C)(C)C(=O)[C@H](C)[C@@H](O)[C@@H](C)CCC1` reaches 1 or more?
OUT: condition met
